Would you mind telling me the reported ED50 of each entry?
# system.name: 5-HT2 (Rattus norvegicus)
# Construct: from tissue; host or cells: whole anaesthetised male Sprague-Dawley rat in vivo (vasculature; arterial blood pressure recorded)
# Sequence (P14842 whole entry): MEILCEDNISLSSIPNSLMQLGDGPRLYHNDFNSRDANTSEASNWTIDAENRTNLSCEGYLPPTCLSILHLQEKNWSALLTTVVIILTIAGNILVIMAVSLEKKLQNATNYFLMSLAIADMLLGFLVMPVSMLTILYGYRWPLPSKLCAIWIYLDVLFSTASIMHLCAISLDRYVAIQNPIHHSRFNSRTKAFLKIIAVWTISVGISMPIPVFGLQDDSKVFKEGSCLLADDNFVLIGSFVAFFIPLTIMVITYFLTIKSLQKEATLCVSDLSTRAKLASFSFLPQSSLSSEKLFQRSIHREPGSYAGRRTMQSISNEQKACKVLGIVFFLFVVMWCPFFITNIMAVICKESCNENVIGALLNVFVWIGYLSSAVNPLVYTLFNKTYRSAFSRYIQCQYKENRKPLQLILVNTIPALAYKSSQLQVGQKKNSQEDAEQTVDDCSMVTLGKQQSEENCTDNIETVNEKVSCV
# measurement.notes: 5-HT2 antagonism: inhibition of hypertensive response to 5-hydroxytryptamine
# Assay type: in vivo, rat (male Sprague-Dawley)
# setup.conditions: iv, 10 min, i.v., cumulative doses, 5-hydroxytryptamine 100 μg/kg i.v., prazosin pretreatment, read-out: ID50, dose inhibiting the hypertensive response by 50%
Counter-ions that a name gives are not always drawn.
Numbers only, in µg/kg.

# molecule, system.name, quantity.name, endpoint.value
measured = [
    ("Cc1nc2c(C(N)=O)ncn2c(O)c1CCN1CCC(CC(=O)c2ccc(F)cc2)C1.Cl (stereo not drawn)", "5-HT2 (Rattus norvegicus)", "ED50", 10),
    ("O=C(CC1CCN(CCn2c(=O)[nH]c3ccccc3c2=O)C1)c1ccc(F)cc1 (stereo not drawn) [EXAMPLE 10, hydrochloride]", "5-HT2 (Rattus norvegicus)", "ED50", 5.4),
    ("Cl.O=C(c1ccc(F)cc1)C1CCN(CCCN2C(=O)CN(Cc3ccccc3F)CC2=O)CC1", "5-HT2 (Rattus norvegicus)", "ED50", 14),
    ("Cc1nc2c(C(N)=O)ncn2c(O)c1CCN1CCC(C(=O)c2ccc(F)cc2)CC1 [EXAMPLE 8, hydrochloride]", "5-HT2 (Rattus norvegicus)", "ED50", 18),
    ("Cc1nc2c(C#N)ncn2c(O)c1CCN1CCC(C(=O)c2ccc(F)cc2)CC1 [EXAMPLE 1, hydrochloride]", "5-HT2 (Rattus norvegicus)", "ED50", 4.5),
]

// switching to the query molecule
Note to self: ED50 recorded for O=C(CC1CCCN(CCCN2C(=O)CN(Cc3ccccc3F)CC2=O)C1)c1ccc(F)cc1 (stereo not drawn) was 3.7

---

# Test system: 5-HTP
# measurement.notes: 5-HTP antagonism: forepaw treading, flat body posture and head twitches induced by 5-hydroxytryptophan
# Type: in vivo, rat (female Wistar)
# setup.conditions: Rattus norvegicus, sc; subcutaneously; 5-hydroxytryptophan 320 mg/kg; Table IV; read-out: ED50 FBP (flat body posture)
Where a name gives a salt, the structure may show the parent alone.
quantity.name: ED50
I'd appreciate it if you wrote the number followed by its unit.

# compound, endpoint.value
data = [
    ("Cc1nc2c(C#N)ncn2c(O)c1CCN1CCC(C(=O)c2ccc(F)cc2)CC1 [EXAMPLE 1, hydrochloride]", "0.04 mg/kg"),
]

Working through the 8 compounds below one at a time, give ED50 for each.
1. Cl.O=C(c1ccc(F)cc1)C1CCN(CCCN2C(=O)CN(Cc3ccccc3F)CC2=O)CC1 [EXAMPLE 2]
2. O=C(CC1CCN(CCCN2C(=O)CN(Cc3ccccc3F)CC2=O)C1)c1ccc(F)cc1.O=C(O)C(O)C(O)C(=O)O (centres unmarked) [EXAMPLE 5]
3. O=C(CC1CCN(CCn2c(=O)[nH]c3ccccc3c2=O)C1)c1ccc(F)cc1 (centres unmarked) [EXAMPLE 10, hydrochloride]
4. O=C(CC1CCCN(CCCN2C(=O)CN(Cc3ccccc3F)CC2=O)C1)c1ccc(F)cc1 (centres unmarked) [EXAMPLE 6]
5. Cl.Cl.O=C(c1ccc(F)cc1)C1CCN(CCN2CCN(c3ncccn3)CC2)CC1 [EXAMPLE 21]
6. Cc1cccc(CN2CC(=O)N(CCCN3CCC(C(=O)c4ccc(F)cc4)CC3)C(=O)C2)c1.Cl [EXAMPLE 15]
7. Cl.O=C(c1ccc(F)cc1)C1CCN(CCCCN2C(=O)CN(Cc3ccccc3F)CC2=O)CC1 [EXAMPLE 4]
8. Cl.O=C(c1ccc(F)cc1)C1CCN(CCCN2C(=O)CN(Cc3ccccn3)CC2=O)CC1 [EXAMPLE 3]

1: 0.31 mg/kg; 2: 0.31 mg/kg; 3: 0.16 mg/kg; 4: 1.25 mg/kg; 5: 0.63 mg/kg; 6: 2.5 mg/kg; 7: 10 mg/kg; 8: 0.31 mg/kg

Working through the 2 compounds below one at a time, give ED50 for each.
1. COc1cccc(CN2CC(=O)N(CCCN3CCC(C(=O)c4ccc(F)cc4)CC3)C(=O)C2)c1.Cl [EXAMPLE 18]
2. Cl.Cl.O=C(c1ccc(F)cc1)C1CCN(CCCN2CCN(c3ncccn3)CC2)CC1 [EXAMPLE 7]

2.5 mg/kg
1.25 mg/kg

Reference for the values: patent US5077288A
